assay-target: insulin receptor of C2C12 mouse myoblasts (mouse, UniProt P15208 28-1372)
Sequence (P15208 28-1372): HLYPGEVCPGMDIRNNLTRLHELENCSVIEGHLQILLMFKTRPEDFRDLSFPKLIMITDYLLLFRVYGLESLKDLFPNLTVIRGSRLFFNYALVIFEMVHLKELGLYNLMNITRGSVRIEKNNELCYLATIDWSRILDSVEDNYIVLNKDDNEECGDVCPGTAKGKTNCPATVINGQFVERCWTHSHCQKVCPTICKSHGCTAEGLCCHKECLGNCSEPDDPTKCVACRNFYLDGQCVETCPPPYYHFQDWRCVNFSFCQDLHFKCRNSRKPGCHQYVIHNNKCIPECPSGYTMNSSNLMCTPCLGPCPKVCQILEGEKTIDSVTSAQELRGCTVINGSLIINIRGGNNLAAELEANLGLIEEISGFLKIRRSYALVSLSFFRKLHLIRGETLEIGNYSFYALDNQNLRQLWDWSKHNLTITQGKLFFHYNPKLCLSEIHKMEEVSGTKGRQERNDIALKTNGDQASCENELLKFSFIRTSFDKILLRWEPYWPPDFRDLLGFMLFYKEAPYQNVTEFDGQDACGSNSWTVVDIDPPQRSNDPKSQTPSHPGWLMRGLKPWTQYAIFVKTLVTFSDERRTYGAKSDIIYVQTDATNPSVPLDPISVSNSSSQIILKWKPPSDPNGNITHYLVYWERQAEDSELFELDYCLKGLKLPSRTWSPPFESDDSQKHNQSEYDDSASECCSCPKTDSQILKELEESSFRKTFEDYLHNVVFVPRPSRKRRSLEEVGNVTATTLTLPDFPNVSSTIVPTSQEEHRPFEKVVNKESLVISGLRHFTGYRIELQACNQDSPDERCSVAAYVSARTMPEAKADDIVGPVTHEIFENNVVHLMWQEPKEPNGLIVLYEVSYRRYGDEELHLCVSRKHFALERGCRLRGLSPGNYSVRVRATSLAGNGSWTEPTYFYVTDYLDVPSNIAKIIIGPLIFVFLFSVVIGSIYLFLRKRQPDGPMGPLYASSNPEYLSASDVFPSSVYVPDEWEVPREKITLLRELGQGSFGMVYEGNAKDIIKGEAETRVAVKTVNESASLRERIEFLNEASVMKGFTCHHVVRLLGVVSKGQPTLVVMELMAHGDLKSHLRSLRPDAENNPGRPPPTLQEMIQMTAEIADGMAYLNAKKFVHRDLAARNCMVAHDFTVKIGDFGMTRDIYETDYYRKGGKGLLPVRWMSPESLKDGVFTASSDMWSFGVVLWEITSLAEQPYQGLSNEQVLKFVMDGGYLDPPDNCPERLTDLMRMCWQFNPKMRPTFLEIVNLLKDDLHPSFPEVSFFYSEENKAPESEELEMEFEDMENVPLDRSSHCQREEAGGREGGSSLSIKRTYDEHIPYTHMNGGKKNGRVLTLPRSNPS
protocol-text: cell-based or functional assay
Could you please report measured AKT phosphorylation activity (EC50) in C2C12 mouse myoblasts (HTRF phospho-S473) for the items listed next?
# output: bare number, implied unit nM

Tell me AKT phosphorylation activity (EC50) in C2C12 mouse myoblasts (HTRF phospho-S473) reported for fusion protein 9 (insulin analog 6 + L2 + IgG2 Fc1) (Fc fusion) FVNQHLCGEHLVEALYLVCGERGFHYGGGGGGSGGGGGIVEQCCESICSLEQLENYCNHGGGQGGGGQGGGGQGGGGGECPPCPAPPVAGPSVFLFPPKPKDTLMISRTPEVTCVVVDVSHEDPEVQFNWYVDGVEVHNAKTKPREEQFNSTFRVVSVLTVVHQDWLNGKEYKCKVSNKGLPAPIEKTISKTKGQPREPQVYTLPPSREEMTKNQVSLTCLVKGFYPSDIAVEWESNGQPENNYKTTPPMLDSDGSFFLYSKLTVDKSRWQQGNVFSCSVMHEALHNHYTQKSLSLSPG
133

Give the reported AKT phosphorylation activity (EC50) in C2C12 mouse myoblasts (HTRF phospho-S473) for this binder. fusion protein 4 (insulin analog 4 + L2 + IgG2 Fc1) (Fc fusion) FVKQHLCGEHLVEALYLVCGERGFHYGGGGGGSGGGGGIVEQCCESICSLEQLENYCGGGGGQGGGGQGGGGQGGGGGECPPCPAPPVAGPSVFLFPPKPKDTLMISRTPEVTCVVVDVSHEDPEVQFNWYVDGVEVHNAKTKPREEQFNSTFRVVSVLTVVHQDWLNGKEYKCKVSNKGLPAPIEKTISKTKGQPREPQVYTLPPSREEMTKNQVSLTCLVKGFYPSDIAVEWESNGQPENNYKTTPPMLDSDGSFFLYSKLTVDKSRWQQGNVFSCSVMHEALHNHYTQKSLSLSPG
565
